biological target: UniProt:P78536; conditions: read-out: TACE potency IC50
Sequence (P78536 whole entry, looked up, change not shown): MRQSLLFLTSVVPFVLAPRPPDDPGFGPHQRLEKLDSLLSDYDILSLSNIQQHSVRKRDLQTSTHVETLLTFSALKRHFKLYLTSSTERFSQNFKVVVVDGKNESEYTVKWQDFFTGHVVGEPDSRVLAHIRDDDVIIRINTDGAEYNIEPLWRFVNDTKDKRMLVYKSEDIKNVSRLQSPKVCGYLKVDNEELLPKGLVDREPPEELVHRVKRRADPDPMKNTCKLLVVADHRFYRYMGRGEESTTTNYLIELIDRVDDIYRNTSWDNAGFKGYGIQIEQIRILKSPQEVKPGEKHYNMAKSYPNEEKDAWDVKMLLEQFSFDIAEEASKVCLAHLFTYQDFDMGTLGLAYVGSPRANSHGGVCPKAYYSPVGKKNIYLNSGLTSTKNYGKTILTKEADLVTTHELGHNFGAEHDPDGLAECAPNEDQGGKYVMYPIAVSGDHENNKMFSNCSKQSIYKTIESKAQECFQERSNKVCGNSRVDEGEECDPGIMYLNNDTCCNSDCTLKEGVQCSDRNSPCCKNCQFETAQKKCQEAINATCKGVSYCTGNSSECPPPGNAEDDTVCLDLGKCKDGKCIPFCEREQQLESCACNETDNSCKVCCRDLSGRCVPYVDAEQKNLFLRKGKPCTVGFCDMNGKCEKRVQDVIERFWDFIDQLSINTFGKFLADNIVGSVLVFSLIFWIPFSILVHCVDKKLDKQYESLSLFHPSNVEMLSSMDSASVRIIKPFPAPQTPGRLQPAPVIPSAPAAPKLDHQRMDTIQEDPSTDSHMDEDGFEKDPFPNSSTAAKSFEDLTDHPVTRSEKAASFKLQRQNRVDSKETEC
Reported IC50 by item:

Consider the compound O=C(CC1(CCC(=O)N2CCN(c3cc(Cl)cc(Cl)c3)CC2)NC(=O)NC1=O)NCCO (stereo not shown) and give its measured IC50.
> 4 µM

Any idea what IC50 was measured for C[C@H]1CN(C(=O)CC[C@@]2(C3CC3)NC(=O)NC2=O)CCN1c1ccc(F)c(F)c1 ?
> 20 µM

Can you look up the measured IC50 of Cc1cccc(C2(CCC(=O)N3CCN(c4cc(F)cc(Cl)c4)[C@@H](C)C3)NC(=O)NC2=O)n1 (stereo partly shown) for me?
3.59 µM

Fill in the blank: the reported IC50 of COCC1(CC(C)C(=O)N2CCN(c3ccc(F)c(F)c3)[C@@H](C)C2)NC(=O)NC1=O (stereo partly shown) is ____.
> 4 µM
